test-system: EGFR del19/T790M/C797S (Homo sapiens, UniProt P00533, C797S/DEL746-750/T790M)
Sequence (P00533 with tags, fused parts or gaps DEL746-750/T790M/C797S): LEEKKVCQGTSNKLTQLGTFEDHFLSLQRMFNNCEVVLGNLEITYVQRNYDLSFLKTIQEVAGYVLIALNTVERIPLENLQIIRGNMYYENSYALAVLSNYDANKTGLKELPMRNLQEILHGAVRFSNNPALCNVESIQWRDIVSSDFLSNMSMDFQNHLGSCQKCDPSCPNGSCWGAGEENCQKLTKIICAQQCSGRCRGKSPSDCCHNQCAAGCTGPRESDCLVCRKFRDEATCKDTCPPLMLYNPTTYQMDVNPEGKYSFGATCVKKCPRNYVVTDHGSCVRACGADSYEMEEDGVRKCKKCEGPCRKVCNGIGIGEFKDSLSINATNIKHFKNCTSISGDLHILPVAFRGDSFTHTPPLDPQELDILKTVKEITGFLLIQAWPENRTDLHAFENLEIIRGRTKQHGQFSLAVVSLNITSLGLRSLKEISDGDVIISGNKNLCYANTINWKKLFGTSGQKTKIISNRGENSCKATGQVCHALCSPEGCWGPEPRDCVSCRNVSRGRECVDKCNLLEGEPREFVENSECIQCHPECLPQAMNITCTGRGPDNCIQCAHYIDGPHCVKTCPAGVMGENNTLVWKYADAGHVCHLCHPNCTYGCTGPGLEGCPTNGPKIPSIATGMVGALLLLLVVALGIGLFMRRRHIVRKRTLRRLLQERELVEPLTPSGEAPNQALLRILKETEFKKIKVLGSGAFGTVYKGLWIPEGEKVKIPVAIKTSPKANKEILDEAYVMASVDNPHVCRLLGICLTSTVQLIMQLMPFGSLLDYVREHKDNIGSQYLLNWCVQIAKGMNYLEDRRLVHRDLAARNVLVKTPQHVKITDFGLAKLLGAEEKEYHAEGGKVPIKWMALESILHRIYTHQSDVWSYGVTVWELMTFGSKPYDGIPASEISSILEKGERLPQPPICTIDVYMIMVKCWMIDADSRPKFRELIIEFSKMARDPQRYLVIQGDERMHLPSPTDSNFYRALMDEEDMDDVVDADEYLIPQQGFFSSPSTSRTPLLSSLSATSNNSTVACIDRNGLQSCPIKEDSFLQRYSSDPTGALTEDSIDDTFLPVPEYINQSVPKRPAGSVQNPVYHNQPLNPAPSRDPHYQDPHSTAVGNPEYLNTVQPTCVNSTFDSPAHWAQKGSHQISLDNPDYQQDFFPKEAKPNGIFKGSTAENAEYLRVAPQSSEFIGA
procedure-details: Biochemical EGFR kinase assay (Lance Ultra TR-FRET), triple mutant del19/T790M/C797S
condition-info: Km ATP; read-out: IC50 del19/T790M/C797S (nM) Km ATP
recorded-endpoint: IC50
# output: numeric value plus its unit

Examples from the recorded data:
compound: O=S(=O)(C1CC1)n1cc(-c2nccc(Nc3cc(NC4CCC(F)(CO)CC4)c(-c4cc5n(n4)CCCC5)cn3)n2)cn1 (stereo not drawn) [Example 276]
IC50: 0.8 nM
//
compound: Cn1ccc(-c2cnc(Nc3ccnc(-c4cnn(S(=O)(=O)C5CC5)c4)n3)cc2NC[C@H]2CC[C@](C)(O)CC2)n1 [Example 48]
IC50: 0.4 nM
//
compound: C[C@]1(O)CC[C@@H](Nc2cc(Nc3ccnc(-c4cnn(CC(F)F)c4)n3)ncc2-n2ccc(C(F)F)n2)CC1 [Example 177]
IC50: 0.8 nM
//
compound: CN(C)CC[C@H]1CC[C@@H](Nc2cc(Nc3ccnc(-c4cnn(S(=O)(=O)C5CC5)c4)n3)ncc2-c2ccn(C)n2)CC1 [Example 240]
IC50: 0.4 nM
//
compound: Cn1ccc(-c2cnc(Nc3ccnc(-c4cnn(S(=O)(=O)C5CC5)c4)n3)cc2N[C@H]2CC[C@@H](CCO)CC2)n1 [Example 136]
IC50: 0.8 nM

So what's the measured IC50 for this one? CN[C@H]1CC[C@@H](Oc2cc(Nc3ccnc(-c4cnn(S(=O)(=O)C5CC5)c4)n3)ncc2-c2ccn(C(F)F)n2)CC1 [Example 65] 0.8 nM

* * *

test-system: EGFR L858R/T790M/C797S (Homo sapiens, UniProt P00533, C797S/L858R/T790M)
Sequence (P00533 25-1210 T790M/C797S/L858R): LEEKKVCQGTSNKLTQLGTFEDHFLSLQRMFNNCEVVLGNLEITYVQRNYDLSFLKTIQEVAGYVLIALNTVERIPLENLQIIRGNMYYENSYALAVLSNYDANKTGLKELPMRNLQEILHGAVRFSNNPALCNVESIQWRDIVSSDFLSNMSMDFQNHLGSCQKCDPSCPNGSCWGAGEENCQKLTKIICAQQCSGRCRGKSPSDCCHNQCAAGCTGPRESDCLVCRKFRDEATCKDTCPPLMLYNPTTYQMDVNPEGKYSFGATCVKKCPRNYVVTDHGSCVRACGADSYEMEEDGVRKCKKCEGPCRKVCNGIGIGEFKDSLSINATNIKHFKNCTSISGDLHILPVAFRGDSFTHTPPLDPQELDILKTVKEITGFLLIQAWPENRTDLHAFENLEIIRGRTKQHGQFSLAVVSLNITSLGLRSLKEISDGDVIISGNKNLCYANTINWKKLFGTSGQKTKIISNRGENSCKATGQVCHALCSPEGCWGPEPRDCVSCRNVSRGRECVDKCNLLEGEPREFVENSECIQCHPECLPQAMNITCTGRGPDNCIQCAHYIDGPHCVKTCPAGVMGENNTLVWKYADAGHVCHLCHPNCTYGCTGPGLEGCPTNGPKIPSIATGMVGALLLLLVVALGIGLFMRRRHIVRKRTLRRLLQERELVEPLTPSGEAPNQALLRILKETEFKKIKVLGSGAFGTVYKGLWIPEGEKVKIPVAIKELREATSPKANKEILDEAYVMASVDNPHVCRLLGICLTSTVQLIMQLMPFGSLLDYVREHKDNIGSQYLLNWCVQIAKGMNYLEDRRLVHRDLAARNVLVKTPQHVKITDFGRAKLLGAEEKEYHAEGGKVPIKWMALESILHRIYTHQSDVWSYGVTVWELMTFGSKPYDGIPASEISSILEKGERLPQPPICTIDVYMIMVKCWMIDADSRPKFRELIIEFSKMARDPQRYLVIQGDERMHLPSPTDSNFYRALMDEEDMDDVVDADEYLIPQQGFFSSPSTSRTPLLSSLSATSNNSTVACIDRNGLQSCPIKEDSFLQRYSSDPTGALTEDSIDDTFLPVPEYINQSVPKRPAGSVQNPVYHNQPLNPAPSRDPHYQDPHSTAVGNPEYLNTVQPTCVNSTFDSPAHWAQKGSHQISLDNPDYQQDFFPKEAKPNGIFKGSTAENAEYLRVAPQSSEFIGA
procedure-details: Biochemical EGFR kinase assay (Lance Ultra TR-FRET), triple mutant L858R/T790M/C797S
condition-info: IC50 L858R/T790M/C797S (nM) 100 μM ATP, 100 μM ATP
Recorded measurements of IC50, one per entry
// units = nM; emit number, no label

Examples from the recorded data:
molecule: Cn1ccc(-c2cnc(Nc3ccnc(-c4cnn(S(=O)(=O)C5CC5)c4)n3)cc2N[C@H]2CC[C@](O)(C(F)F)CC2)n1 [Example 231]
unit-tag: nM
IC50: 0.7
//
molecule: O=S(=O)(C1CC1)n1cc(-c2nccc(Nc3cc(NC4CCCC(NCC(F)F)C4)c(-c4ccn(C(F)F)n4)cn3)n2)cn1 (centres unmarked) [Example 191]
unit-tag: nM
IC50: 2.4

So what's the measured IC50 for this one? Cn1nc(-c2cnc(Nc3ccnc(-c4cnn(CC(F)(F)F)c4)n3)cc2N[C@H]2CC[C@@](C)(O)CC2)cc1C(F)(F)F [Example 329] 4.1

So what's the measured IC50 for this one? O=S(=O)(C1CC1)n1cc(-c2nccc(Nc3cc(N[C@H]4CCCNCC4)c(-c4ccn(C(F)F)n4)cn3)n2)cn1 [Example 17] 2.6

So what's the measured IC50 for this one? CN(C)CCCn1ccc(-c2cnc(Nc3ccnc(-c4cnn(S(=O)(=O)C5CC5)c4)n3)cc2N[C@H]2CC[C@@H](CO)CC2)n1 [Example 296] 0.1

So what's the measured IC50 for this one? Cn1nc(-c2cnc(Nc3ccnc(-c4cnn(S(=O)(=O)C5CC5)c4)n3)cc2N[C@H]2CC[C@@H](C(C)(C)O)CC2)cc1C(C)(C)O [Example 298] 1

So what's the measured IC50 for this one? Cn1ccc(-c2cnc(Nc3ccnc(-c4cnn(S(=O)(=O)C5CC5)c4)n3)cc2N[C@H]2CC[C@](O)(CO)CC2)n1 [Example 221] 0.2

So what's the measured IC50 for this one? CN(CC(F)F)C[C@H]1CC[C@@H](Nc2cc(Nc3ccnc(-c4cnn(S(=O)(=O)C5CC5)c4)n3)ncc2-c2cc(C(F)(F)F)n(C)n2)CC1 [Example 259] 63.9

* * *

test-system: EGFR del19/C797S (Homo sapiens, UniProt P00533, C797S/DEL746-750)
Sequence (P00533 with tags, fused parts or gaps DEL746-750/C797S): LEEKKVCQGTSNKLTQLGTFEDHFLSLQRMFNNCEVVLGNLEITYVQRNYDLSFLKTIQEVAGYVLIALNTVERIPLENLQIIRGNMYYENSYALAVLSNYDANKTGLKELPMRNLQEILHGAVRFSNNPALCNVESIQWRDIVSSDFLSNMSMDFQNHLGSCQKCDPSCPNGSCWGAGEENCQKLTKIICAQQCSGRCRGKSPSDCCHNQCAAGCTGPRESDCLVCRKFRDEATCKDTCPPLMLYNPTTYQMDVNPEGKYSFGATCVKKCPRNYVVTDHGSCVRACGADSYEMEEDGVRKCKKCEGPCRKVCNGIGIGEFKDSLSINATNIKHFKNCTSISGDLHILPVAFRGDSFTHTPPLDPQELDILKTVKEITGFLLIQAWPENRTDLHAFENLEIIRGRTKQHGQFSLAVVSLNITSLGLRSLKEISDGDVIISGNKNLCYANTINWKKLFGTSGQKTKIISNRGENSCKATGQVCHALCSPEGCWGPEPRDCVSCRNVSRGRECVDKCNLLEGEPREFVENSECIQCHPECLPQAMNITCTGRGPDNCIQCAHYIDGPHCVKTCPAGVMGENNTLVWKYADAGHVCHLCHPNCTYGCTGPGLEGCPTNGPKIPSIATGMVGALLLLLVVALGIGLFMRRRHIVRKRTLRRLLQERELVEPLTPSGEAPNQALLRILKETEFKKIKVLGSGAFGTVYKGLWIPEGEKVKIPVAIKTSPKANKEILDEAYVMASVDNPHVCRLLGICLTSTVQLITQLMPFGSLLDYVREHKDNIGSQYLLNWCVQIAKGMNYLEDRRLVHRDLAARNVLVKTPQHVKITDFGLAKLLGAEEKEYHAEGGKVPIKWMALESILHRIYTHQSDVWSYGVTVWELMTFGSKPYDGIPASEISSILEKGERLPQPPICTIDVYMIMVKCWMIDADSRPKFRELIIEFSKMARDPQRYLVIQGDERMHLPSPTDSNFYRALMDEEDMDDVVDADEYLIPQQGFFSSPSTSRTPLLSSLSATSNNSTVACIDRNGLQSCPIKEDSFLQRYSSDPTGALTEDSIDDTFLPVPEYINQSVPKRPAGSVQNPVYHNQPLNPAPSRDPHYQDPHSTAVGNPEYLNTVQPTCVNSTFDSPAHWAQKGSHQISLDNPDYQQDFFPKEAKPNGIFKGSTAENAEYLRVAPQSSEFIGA
procedure-details: Biochemical EGFR kinase assay (Lance Ultra TR-FRET), double mutant del19/C797S
condition-info: IC50 del19/C797S (nM) 100 μM ATP, 100 μM ATP
recorded-endpoint: IC50 (nM)
// units = nM; emit number, no label

Examples from the recorded data:
compound: Cn1ccc(-c2cnc(Nc3ccnc(-c4cnn(S(=O)(=O)C5CC5)c4)n3)cc2NC2CCCC(NCCF)C2)n1 (stereo not drawn)
test-system: EGFR del19/C797S (Homo sapiens, UniProt P00533, C797S/DEL746-750)
unit-tag: nM
IC50: 6.7
//
compound: O=S(=O)(C1CC1)n1cc(-c2nccc(Nc3cc(N[C@H]4CC[C@H](O)C4)c(-c4ccn(C(F)F)n4)cn3)n2)cn1
test-system: EGFR del19/C797S (Homo sapiens, UniProt P00533, C797S/DEL746-750)
unit-tag: nM
IC50: 3.4

So what's the measured IC50 for this one? O=S(=O)(C1CC1)n1cc(-c2nccc(Nc3cc(N[C@H]4CC[C@@H](NCC(F)F)CC4)c(-c4cc5n(n4)CCCC5)cn3)n2)cn1 2.2

* * *

test-system: EGFR L858R/C797S (Homo sapiens, UniProt P00533, C797S/L858R)
Sequence (P00533 25-1210 C797S/L858R): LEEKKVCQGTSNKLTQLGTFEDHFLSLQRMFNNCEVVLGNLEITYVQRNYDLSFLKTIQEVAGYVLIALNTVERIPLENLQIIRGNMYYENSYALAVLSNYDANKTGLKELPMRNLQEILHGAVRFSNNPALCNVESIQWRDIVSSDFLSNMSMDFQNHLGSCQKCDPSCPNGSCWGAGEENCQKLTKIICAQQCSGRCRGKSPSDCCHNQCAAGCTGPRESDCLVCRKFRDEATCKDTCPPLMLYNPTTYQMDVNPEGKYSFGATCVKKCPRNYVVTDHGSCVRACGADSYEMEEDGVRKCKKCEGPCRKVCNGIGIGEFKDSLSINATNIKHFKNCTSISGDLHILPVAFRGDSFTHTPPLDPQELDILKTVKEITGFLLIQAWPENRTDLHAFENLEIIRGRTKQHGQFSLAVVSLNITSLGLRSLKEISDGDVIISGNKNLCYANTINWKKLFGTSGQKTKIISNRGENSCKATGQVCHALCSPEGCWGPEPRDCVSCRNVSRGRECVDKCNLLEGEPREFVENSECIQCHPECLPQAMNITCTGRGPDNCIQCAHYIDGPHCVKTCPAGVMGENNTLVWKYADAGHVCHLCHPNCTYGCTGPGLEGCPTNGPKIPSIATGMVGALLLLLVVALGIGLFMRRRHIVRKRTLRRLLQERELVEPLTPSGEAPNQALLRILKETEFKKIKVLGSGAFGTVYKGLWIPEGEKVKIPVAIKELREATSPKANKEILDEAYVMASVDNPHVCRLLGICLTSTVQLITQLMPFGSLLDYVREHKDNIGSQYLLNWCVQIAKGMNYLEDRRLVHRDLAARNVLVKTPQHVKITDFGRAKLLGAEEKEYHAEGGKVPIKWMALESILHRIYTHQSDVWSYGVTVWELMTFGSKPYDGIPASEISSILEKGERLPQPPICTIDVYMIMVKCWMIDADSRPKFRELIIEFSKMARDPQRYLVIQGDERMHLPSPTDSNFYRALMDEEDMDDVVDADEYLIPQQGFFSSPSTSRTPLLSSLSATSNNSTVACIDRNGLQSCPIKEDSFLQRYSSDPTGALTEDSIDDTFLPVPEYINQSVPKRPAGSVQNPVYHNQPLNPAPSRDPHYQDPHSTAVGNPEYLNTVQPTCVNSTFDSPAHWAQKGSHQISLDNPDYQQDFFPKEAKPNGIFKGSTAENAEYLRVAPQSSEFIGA
procedure-details: Biochemical EGFR kinase assay (Lance Ultra TR-FRET), double mutant L858R/C797S
condition-info: Km ATP; read-out: IC50 L858R/C797S, Km ATP
recorded-endpoint: IC50 (nM)
// units = nM; emit number, no label

So what's the measured IC50 for this one? Cn1nc(-c2cnc(Nc3ccnc(-c4cnn(S(=O)(=O)C5CC5)c4)c3)nc2N[C@H]2CC[C@@](C)(O)CC2)cc1C(F)(F)F [Example 356] 12.1

So what's the measured IC50 for this one? Cc1nn(CC(F)(F)F)cc1-c1nccc(Nc2cc(N[C@H]3CC[C@@](C)(O)CC3)c(-c3cc(C(F)(F)F)n(C)n3)cn2)n1 [Example 332] 6

So what's the measured IC50 for this one? C[C@]1(O)CC[C@@H](Nc2cc(Nc3ccnc(N4CCC[C@@H](O)C4)n3)ncc2-c2ccn(C(F)F)n2)CC1 [Example 352] 105

So what's the measured IC50 for this one? C[C@]1(O)CC[C@@H](Nc2cc(Nc3ccnc(-c4cnn(S(=O)(=O)C5CC5)c4)n3)nnc2-c2ccn(C(F)F)n2)CC1 [Example 372] 3.7

So what's the measured IC50 for this one? O=S(=O)(C1CC1)n1cc(-c2cc(Nc3ncc(-c4ccn(CCC(F)(F)F)n4)c(N[C@H]4CC[C@@H](F)CC4)n3)ccn2)cn1 [Example 367] 251

So what's the measured IC50 for this one? CC(C)(O)[C@H]1CC[C@@H](Nc2nc(Nc3ccnc(-c4cnn(S(=O)(=O)C5CC5)c4)c3)ncc2-c2ccn(C(F)F)n2)CC1 [Example 365] 48.4

So what's the measured IC50 for this one? CC1(O)CCC(Nc2cc(Nc3ccnc(N4CC(O)C(F)(F)C4)n3)ncc2-c2ccn(C(F)F)n2)CC1 (stereo not drawn) [Example 349] 77.2

* * *

test-system: EGFR del19/C797S (Homo sapiens, UniProt P00533, C797S/DEL746-750)
procedure-details: Biochemical EGFR kinase assay (Lance Ultra TR-FRET), double mutant del19/C797S
condition-info: Km ATP; read-out: IC50 del19/C797S (nM) Km ATP
Description: Biochemical EGFR kinase assays were conducted using Lance Ultra time-resolved fluorescence resonance energy transfer (TR-FRET) technology from Perkin-Elmer. […] Each kinase reactions were incubated at room temperature for 1 hour and then stopped by the addition of 4 μL of stop solution (10 mM EDTA). […] After 60 minutes incubation at room temperature the LANCE signal was measured on an EnVision Multilabel Reader (Perkin-Elmer). […]
recorded-endpoint: IC50 (nM)
// units = nM; emit number, no label

chem-smiles: Cc1cc(-c2cnc(Nc3ccnc(-c4cnn(S(=O)(=O)C5CC5)c4)n3)cc2N[C@H]2CC[C@@H](C(C)(C)O)CC2)nn1C
unit-tag: nM
IC50: 0.9

So what's the measured IC50 for this one? CS(=O)(=O)n1ccc(-c2nccc(Nc3cc(N[C@H]4CC[C@@](C)(O)CC4)c(-c4ccn(C(F)F)n4)cn3)n2)c1 23.7

So what's the measured IC50 for this one? O=S(=O)(C1CC1)n1cc(-c2nccc(Nc3cc(N[C@H]4CC[C@@H](CO)CC4)c(-c4ccn(CC(F)F)n4)cn3)n2)cn1 0.6

So what's the measured IC50 for this one? C[C@]1(O)CC[C@@H](Nc2cc(Nc3ccnc(-c4cnn(S(=O)(=O)N5CC(F)C5)c4)n3)ncc2-c2ccn(C(F)F)n2)CC1 66.9

So what's the measured IC50 for this one? O=S(=O)(C1CC1)n1cc(-c2nccc(Nc3cc(N[C@H]4CCC[C@H](O)C4)c(-c4ccn(C(F)F)n4)cn3)n2)cn1 0.3

So what's the measured IC50 for this one? O=S(=O)(C1CC1)n1cc(-c2nccc(Nc3cc(NC4CCC5(CC4)CNC5)c(-c4ccn(C(F)F)n4)cn3)n2)cn1 0.2
